- ASSAY_TARGET: Estrogen receptor beta (Homo sapiens)
- ASSAY_EXPLANATION: qHTS assay to identify small molecule agonists of the estrogen receptor beta (ER-beta) signaling pathway (AID 1259377); further: on the % scale 0 is the no-effect control and ±100 the full control effect
- CONDITION_DESCRIPTION: ER-beta-UAS-bla HEK293T, beta-lactamase FRET ratio, 16 h; series mostly up to 92.4 µM
Records with an inconclusive call do not appear. Active and inactive are the calls of the source. The call rests on the fitted dose curve; in most records, active means well fitted activation curve with a large enough effect in the signal ratio in the repeat runs (not every such curve was filed as active); inconclusive means weak or mixed curves, or effect the other way; inactive means flat fitted curve, though single readings scatter; the % refers to the signal ratio.
RESULT_TYPE: outcome

Use these answered entries as a reference point.
- COMPOUND: "ClC1=C(Cl)[C@]2(Cl)[C@@H]3[C@@H](Cl)[C@@H](Cl)C[C@@H]3[C@@]1(Cl)C2(Cl)Cl"
  ASSAY_TARGET: "Estrogen receptor beta (Homo sapiens)"
  outcome: "inactive"
- COMPOUND: "O=c1[nH]c2ccccc2n1CCCN1CCC(n2c(=O)[nH]c3cc(Cl)ccc32)CC1"
  ASSAY_TARGET: "Estrogen receptor beta (Homo sapiens)"
  outcome: "inactive"
- COMPOUND: "O=C1NCN(c2ccccc2)C12CCN(CC1COc3ccccc3O1)CC2 (configuration not stated)"
  ASSAY_TARGET: "Estrogen receptor beta (Homo sapiens)"
  outcome: "inactive"
- COMPOUND: "CC(C)C1CCC(Cc2ccc(Cl)cc2)C1(O)Cn1cncn1 (configuration not stated)"
  ASSAY_TARGET: "Estrogen receptor beta (Homo sapiens)"
  outcome: "inactive"
- COMPOUND: "O=c1[nH]c2ccccc2n1C1CCN(CCCC(c2ccc(F)cc2)c2ccc(F)cc2)CC1"
  ASSAY_TARGET: "Estrogen receptor beta (Homo sapiens)"
  outcome: "inactive"

Now, please, on to the next compound.
Data request: Looking for the measured outcome of "Cc1ccc(CCl)cc1" , can you help?
Data returned: inactive

---

- ASSAY_TARGET: Estrogen receptor beta (Homo sapiens)
- ASSAY_EXPLANATION: qHTS assay to identify small molecule antagonists of the estrogen receptor beta (ER-beta) signaling pathway (AID 1259378)
- CONDITION_DESCRIPTION: ER-beta-UAS-bla HEK293T, beta-lactamase FRET ratio, 16 h; series mostly up to 92.4 µM
Records with an inconclusive call do not appear. The source made the active and inactive calls. The call rests on the fitted dose curve; in most records, active means well fitted inhibition curve with a large enough effect in the signal ratio in the repeat runs (not every such curve was filed as active); inconclusive means weak or mixed curves, or effect the other way; inactive means no such curve, though single readings can be large or run the other way; the % refers to the signal ratio.
Entry note: the call must match one of 1 (active), -1 (inactive)

- STRUCTURE: "Cc1cc(C(F)(C(F)(F)F)C(F)(F)F)ccc1NC(=O)c1cccc(I)c1C(=O)NC(C)(C)CS(C)(=O)=O"
  CLASS_ASSIGNMENT: -1

Data request: Which outcome was assigned to "Cc1cc(C)c(C2=C(OC(=O)CC(C)(C)C)C3(CCCC3)OC2=O)c(C)c1" in this test?
Data returned: -1

Data request: Which outcome was assigned to "N#CCc1ccc(Cl)cc1" in this test?
Data returned: -1

Data request: Which outcome was assigned to "Oc1ccc(C(=C(Cl)Cl)c2ccc(O)cc2)cc1" in this test?
Data returned: 1

Data request: Which outcome was assigned to "C[C@]12Cc3nonc3C[C@@H]1CC[C@@H]1[C@@H]2CC[C@@]2(C)[C@H]1CC[C@]2(C)O" in this test?
Data returned: 1

---

- ASSAY_EXPLANATION: qHTS assay for small molecule agonists of the p53 signaling pathway (AID 651631); further: nearly all actives have a fitted effect of over 15% in size
- CONDITION_DESCRIPTION: HCT-116 p53RE-bla reporter, beta-lactamase FRET ratio, 16 h; series mostly up to 73.3 µM
Results filed as inconclusive are left out. The source made the active and inactive calls. Calls come from the whole dose curve.
Entry note: the call must match one of YES for active, NO for inactive

Consider the worked cases shown below.
- MOLECULE: "Cc1ccc(OP(=O)(Oc2ccccc2)Oc2ccccc2)cc1"
  CLASS_ASSIGNMENT: "NO"
- MOLECULE: "FC(F)(F)c1cccc(C2=CCN(CCc3ccc4ccccc4c3)CC2)c1"
  CLASS_ASSIGNMENT: "NO"
- MOLECULE: "COc1ccc(/C(=C/C(=O)N2CCOCC2)c2ccc(Cl)cc2)cc1OC"
  CLASS_ASSIGNMENT: "NO"
- MOLECULE: "CC(C)OS(C)(=O)=O"
  CLASS_ASSIGNMENT: "NO"
- MOLECULE: "Nc1ccccc1C(=O)Oc1ccc2ccccc2c1"
  CLASS_ASSIGNMENT: "NO"
- MOLECULE: "CC(C)OC(=S)S"
  CLASS_ASSIGNMENT: "NO"

Data request: Which outcome was assigned to "Clc1ccc(-c2ccc(Cl)c(Cl)c2Cl)c(Cl)c1Cl" in this test?
Data returned: YES

Data request: Which outcome was assigned to Clc1ccc(C(c2ccccc2Cl)C(Cl)(Cl)Cl)cc1 (stereo unspecified) in this test?
Data returned: YES

Data request: Which outcome was assigned to "NNC(=O)c1ccccc1" in this test?
Data returned: NO

Data request: Which outcome was assigned to "O=c1oc2ccccc2c(O)c1Cc1c(O)c2ccccc2oc1=O" in this test?
Data returned: YES

Data request: Which outcome was assigned to "C[C@]12CC[C@@H]3c4ccc(OC(=O)N(CCCl)CCCl)cc4CC[C@H]3[C@@H]1CC[C@@H]2O" in this test?
Data returned: YES

Data request: Which outcome was assigned to CCCN(CC)CC1COC2(CCC(C(C)(C)C)CC2)O1 (stereo unspecified) in this test?
Data returned: NO

Data request: Which outcome was assigned to "FC(Cl)(Cl)Cl" in this test?
Data returned: NO

Data request: Which outcome was assigned to "[Cl][Sb]([Cl])[Cl]" in this test?
Data returned: YES

Data request: Which outcome was assigned to "CC(=O)O[C@H]1CC[C@@]2(C)C(=CC[C@@H]3[C@@H]2CC[C@]2(C)C(=O)CC[C@@H]32)C1" in this test?
Data returned: NO

Data request: Which outcome was assigned to "CN(C)[C@@H]1C(=O)C(C(N)=O)=C(O)[C@@]2(O)C(=O)C3=C(O)c4c(O)ccc(Cl)c4[C@@](C)(O)[C@H]3C[C@@H]12" in this test?
Data returned: NO

Data request: Which outcome was assigned to "O=C(O)c1cc[c]([Hg][Cl])cc1" in this test?
Data returned: YES

Data request: Which outcome was assigned to "BrCBr" in this test?
Data returned: NO

Data request: Which outcome was assigned to "CSCCCN=C=S" in this test?
Data returned: YES

Data request: Which outcome was assigned to "N#CNC#N" in this test?
Data returned: NO

Data request: Which outcome was assigned to "CN(C)CCc1c[nH]c2ccc(O)cc12" in this test?
Data returned: NO

---

- ASSAY_EXPLANATION: qHTS assay to identify small molecule agonists of the hypoxia (HIF-1) signaling pathway - cell viability counter screen (AID 1224844); further: nearly all actives have a fitted effect of over 50% in size
- CONDITION_DESCRIPTION: HRE-bla ME-180 viability, CellTiter-Glo luminescence, 17 h; series mostly up to 76.8 µM
- Description: National Center for Advancing Translational Sciences [NCATS] NIH Chemical Genomics Center [NCGC] U.S. Environmental Protection Agency [EPA] National Institutes of Environmental Health Sciences [NIEHS] National Toxicology Program [NTP] U.S. Food and Drug Administration [FDA] Hypoxia-inducible factor-1 (HIF-1) is the major hypoxia-regulated transcription factor that controls cellular responses to low oxygen concentration. […]
Results filed as inconclusive are left out. Calls of active or inactive are those of the source. Calls come from the whole dose curve.
Entry note: the call must match one of active, inactive

Consider the worked cases shown below.
- MOLECULE: "N#CCCSCCC#N"
  CLASS_ASSIGNMENT: "inactive"
- MOLECULE: "CCOC(=O)c1ccccc1S(=O)(=O)NC(=O)Nc1nc(Cl)cc(OC)n1"
  CLASS_ASSIGNMENT: "inactive"
- MOLECULE: "BrCC(Br)c1ccccc1 (stereo not given)"
  CLASS_ASSIGNMENT: "inactive"
- MOLECULE: "CCOC(=O)C1(c2ccccc2)CCN(CCC(C#N)(c2ccccc2)c2ccccc2)CC1"
  CLASS_ASSIGNMENT: "inactive"
- MOLECULE: "C=CC(=O)N(C)C"
  CLASS_ASSIGNMENT: "inactive"
- MOLECULE: "Clc1ccc(Oc2ccccc2)cc1"
  CLASS_ASSIGNMENT: "inactive"

Data request: Which outcome was assigned to "O=[N+]([O-])c1ccc(Oc2ccc(C(F)(F)F)cc2[N+](=O)[O-])cc1" in this test?
Data returned: inactive

Data request: Which outcome was assigned to "COCC(=O)N(c1c(C)cccc1C)[C@H](C)C(=O)OC" in this test?
Data returned: inactive

Data request: Which outcome was assigned to CC(C)(C)C(O)/C(=C\c1ccc(Cl)cc1Cl)n1cncn1 (stereo not given) in this test?
Data returned: inactive

Data request: Which outcome was assigned to "S=C=Nc1cccc2ccccc12" in this test?
Data returned: active

Data request: Which outcome was assigned to "O=c1ssc(Cl)c1Cl" in this test?
Data returned: active

Data request: Which outcome was assigned to "N#CNC#N" in this test?
Data returned: inactive

Data request: Which outcome was assigned to "Oc1ccc(C(c2ccc(O)cc2)(C(F)(F)F)C(F)(F)F)cc1" in this test?
Data returned: inactive

Data request: Which outcome was assigned to "Cc1cc(C)cc(OP(=O)(Oc2cc(C)cc(C)c2)Oc2cc(C)cc(C)c2)c1" in this test?
Data returned: inactive

Data request: Which outcome was assigned to "Cc1cc(SCc2sc(-c3ccc(C(F)(F)F)c(F)c3)nc2C)ccc1OCC(=O)O" in this test?
Data returned: active
